Assign EC50 to each entry below.
- Assayed Target: GPR39 (Homo sapiens)
- Sequence (O43194 whole entry): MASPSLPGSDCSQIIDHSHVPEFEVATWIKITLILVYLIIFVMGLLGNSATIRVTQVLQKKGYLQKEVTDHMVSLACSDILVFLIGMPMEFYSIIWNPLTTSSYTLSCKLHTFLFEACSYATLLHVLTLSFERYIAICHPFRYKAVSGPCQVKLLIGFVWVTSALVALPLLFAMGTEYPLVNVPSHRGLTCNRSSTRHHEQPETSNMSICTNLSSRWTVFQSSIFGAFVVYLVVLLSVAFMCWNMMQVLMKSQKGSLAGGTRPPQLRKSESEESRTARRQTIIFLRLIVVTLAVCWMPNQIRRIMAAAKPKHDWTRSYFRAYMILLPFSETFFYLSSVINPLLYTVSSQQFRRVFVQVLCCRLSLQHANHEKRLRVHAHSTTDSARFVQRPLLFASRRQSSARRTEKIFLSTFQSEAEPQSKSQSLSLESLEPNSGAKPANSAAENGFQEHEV
- Experimental Protocol: luciferase assay system (SRE luciferase reporter gene) for GPR39 in CV-1 cells
Square brackets hold non-standard residues; d marks the D form. Peptide text beside a SMILES is read from it. * marks the point of attachment. His(τ-CHPh2) = N[C@@H](Cc1cn(C(c2ccccc2)c2ccccc2)cn1)C(=O)O; dPhe(4-Me) = Cc1ccc(C[C@@H](N)C(=O)O)cc1; Dmt = Cc1cc(O)cc(C)c1C[C@H](N)C(=O)O; Octanoyl = CCCCCCCC(=O)*
One number for each entry, in µM.

[[record]]
compound = "CCCCCCCC(=O)NCCCC[C@H](NC(=O)[C@@H](N)Cc1c[n+](CCCC2CCCCC2)cn1CCCC1CCCCC1)C(=O)N[C@@H](Cc1ccccc1)C(=O)N[C@@H](Cc1ccc(O)cc1)C(=O)O"
unit_abbreviation = "µM"
obs_value = 33.7


In the following, a different compound is considered.
Q. Consider the compound CCCCCCCC(=O)NCCCC[C@H](NC(=O)[C@@H](N)Cc1cn(C(c2ccccc2)c2ccccc2)cn1)C(=O)N[C@H](Cc1ccc(C)cc1)C(=O)N[C@@H](Cc1c(C)cc(O)cc1C)C(=O)O [HKFY-36] (H-[His(τ-CHPh2)]K(Octanoyl)[dPhe(4-Me)][Dmt]-OH) and give its recorded EC50.
A. 0.15
